Values were extracted from patent US10294226B2.

Kindly supply the reported IC50 values for the records listed here.
Test system: GM-CSF pSTAT5 (JAK2/JAK2)
Test: GM-CSF pSTAT5 (JAK2/JAK2) cellular assay, AlphaLISA in PBMCs
Type: cell-based
Settings: PBMC, GM-CSF 11 pg/mL
Give bare numbers, in nM.

N#CCC12CCC(NC(=O)Cc3nc4cnc5[nH]ccc5c4n3[C@H]3CC[C@H](CC#N)CC3)(CC1)C2	44.6

I would be grateful if you could provide IC50 for each of the following entries.
1. N#CC[C@H]1CC[C@H](n2c(-c3c[nH]cn3)nc3cnc4[nH]ccc4c32)CC1
2. CC(C)(O)CNC(=O)Cc1nc2cnc3[nH]ccc3c2n1[C@H]1CC[C@H](CC#N)CC1
3. N#CC[C@H]1CC[C@H](n2c(CC(=O)NCC3(O)CCC3)nc3cnc4[nH]ccc4c32)CC1
4. N#CC[C@H]1CC[C@H](n2c(CC(=O)NCC3CCOCC3)nc3cnc4[nH]ccc4c32)CC1
5. N#CC[C@H]1CC[C@H](n2c(CC(=O)NC3CCOCC3)nc3cnc4[nH]ccc4c32)CC1
6. N#CCCNC(=O)Cc1nc2cnc3[nH]ccc3c2n1[C@H]1CC[C@H](CC#N)CC1
7. N#CC[C@H]1CC[C@H](n2c(CC(=O)NCC3(O)CC3)nc3cnc4[nH]ccc4c32)CC1
8. N#CC[C@H]1CC[C@H](n2c(CC(=O)NCC3CC3)nc3cnc4[nH]ccc4c32)CC1

[reply]
61
83.9
33.8
25.1
28.9
119
75.4
21.9

[ask] Form field: reported IC50 of CC(C)(C#N)CNC(=O)Cc1nc2cnc3[nH]ccc3c2n1[C@H]1CC[C@H](CC#N)CC1
[reply] 67.3

###

These molecules were tested on UniProt:P52333; IC50 is the recorded read-out.

Record excerpt, results attached:
N#CC[C@H]1CC[C@H](n2c(CC(=O)NCC3(O)CC3)nc3cnc4[nH]ccc4c32)CC1	101 nM
N#CC[C@H]1CC[C@H](n2c(CC(=O)NCC3CCOCC3)nc3cnc4[nH]ccc4c32)CC1	28.2 nM
C[C@@H](O)c1nc2cnc3[nH]ccc3c2n1[C@H]1CC[C@H](CC#N)CC1 [C, reference compound]	49.7 nM

[ask] Query: IC50; subject: N#CCC12CCC(NC(=O)Cc3nc4cnc5[nH]ccc5c4n3[C@H]3CC[C@H](CC#N)CC3)(CC1)C2
[reply] 87.5 nM

###

Exercise: state measured Papp B→A at 60 min, 5 μM for each of the compounds provided.
Test system: P-gp (MDR1)
Experiment: MDCK-MDR1 permeability assay
Format: in vitro ADME
Details: dog, MDCK-MDR1, pH 7.4; @ 5 μM, basolateral to apical
Give bare numbers, in ×10⁻⁶ cm/s.

Example cases with answers are listed next.
N#CC[C@H]1CC[C@H](n2c(CO)nc3cnc4[nH]ccc4c32)CC1	23.5
C[C@@H](O)c1nc2cnc3[nH]ccc3c2n1[C@H]1CC[C@H](CC#N)CC1 [C, reference compound]	23.1

[ask] Which measured Papp B→A at 60 min, 5 μM belongs to Cc1nc2cnc3[nH]ccc3c2n1[C@H]1CC[C@H](CC#N)CC1 , tested on P-gp (MDR1)?
[reply] 55.3

###

Target: JAK3-JH1JH2 (Homo sapiens (Human), UniProt P52333)
Sequence (P52333 512-1124): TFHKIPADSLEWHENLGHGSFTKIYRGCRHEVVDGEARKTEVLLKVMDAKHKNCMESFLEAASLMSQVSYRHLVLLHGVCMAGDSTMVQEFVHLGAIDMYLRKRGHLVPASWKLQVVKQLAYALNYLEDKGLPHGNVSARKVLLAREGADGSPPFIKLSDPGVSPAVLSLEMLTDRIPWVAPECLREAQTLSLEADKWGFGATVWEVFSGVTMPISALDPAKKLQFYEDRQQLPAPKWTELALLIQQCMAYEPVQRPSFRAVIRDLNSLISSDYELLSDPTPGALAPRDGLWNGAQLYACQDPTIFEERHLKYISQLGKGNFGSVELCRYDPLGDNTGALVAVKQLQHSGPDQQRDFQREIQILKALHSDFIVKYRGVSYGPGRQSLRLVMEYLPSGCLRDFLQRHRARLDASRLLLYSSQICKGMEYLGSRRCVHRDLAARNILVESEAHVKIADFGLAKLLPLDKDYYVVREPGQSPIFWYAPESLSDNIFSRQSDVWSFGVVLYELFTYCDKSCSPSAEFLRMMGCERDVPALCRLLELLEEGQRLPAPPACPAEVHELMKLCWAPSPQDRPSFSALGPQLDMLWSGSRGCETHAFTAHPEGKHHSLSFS
quantity-name: IC50 (nM)
Give bare numbers, in nM.

The examples below pair each entry with its known result.
N#CC[C@H]1CC[C@H](n2c(CC(=O)Nc3cc[nH]n3)nc3cnc4[nH]ccc4c32)CC1	30.3
CC(C)(O)CNC(=O)Cc1nc2cnc3[nH]ccc3c2n1[C@H]1CC[C@H](CC#N)CC1	92.2
CC(C)(C#N)CNC(=O)Cc1nc2cnc3[nH]ccc3c2n1[C@H]1CC[C@H](CC#N)CC1	98.4

[ask] Quick check: IC50 of N#CC[C@H]1CC[C@H](n2c(CC(=O)NCC3CC3)nc3cnc4[nH]ccc4c32)CC1 ?
[reply] 82.8

###

Target: Tyk2-JH1JH2 (Homo sapiens (Human), UniProt P29597, C1142A/C936A)
Sequence (P29597 580-1182 C936A/C1142A): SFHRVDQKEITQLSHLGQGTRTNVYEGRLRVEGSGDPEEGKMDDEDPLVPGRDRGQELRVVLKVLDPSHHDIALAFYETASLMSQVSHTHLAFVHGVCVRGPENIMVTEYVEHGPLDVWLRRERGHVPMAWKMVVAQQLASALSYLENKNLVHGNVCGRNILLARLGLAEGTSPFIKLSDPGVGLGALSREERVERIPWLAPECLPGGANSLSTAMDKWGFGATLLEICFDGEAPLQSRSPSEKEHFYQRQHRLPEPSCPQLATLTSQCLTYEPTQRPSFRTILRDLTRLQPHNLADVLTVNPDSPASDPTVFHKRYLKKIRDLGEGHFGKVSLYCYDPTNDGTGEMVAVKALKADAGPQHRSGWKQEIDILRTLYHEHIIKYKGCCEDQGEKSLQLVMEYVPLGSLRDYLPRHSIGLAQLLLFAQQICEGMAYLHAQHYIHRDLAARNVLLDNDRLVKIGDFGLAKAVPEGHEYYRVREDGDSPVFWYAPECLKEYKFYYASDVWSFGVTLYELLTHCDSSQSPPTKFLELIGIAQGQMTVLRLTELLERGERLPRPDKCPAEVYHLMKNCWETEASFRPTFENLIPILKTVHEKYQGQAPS
Experiment: Enzymatic inhibition assay (HTMS)
Format: biochemical
Details: 50 μM ATP; read-out: Tyk2_I_JH1JH2 IC50
Excerpt: JAK1-JH1JH2 (574-1154 with a His-GST Tag and a C-terminal tev (ENLYFQ-G) cleavage site), JAK3-JH1JH2 (512-1124 with a GST Tag and a C-terminal tev (ENLYFQ-G) cleavage site), and Tyk2-JH1JH2 (8H_tev_580-1182-C936A-C1142A with a C-terminal tev (ENLYFQ-G) cleavage site) were purified internally. […] LC/MS grade water and acetonitrile (ACN), were purchased from HoneyWell, Burdick & Jackson (Muskegon, Mich., USA). […]
quantity-name: pIC50
One number for each entry, as −log10 of the molar value.

A selection of reference data follows.
N#CC[C@H]1CC[C@H](n2c(CC(=O)NCC3CC3)nc3cnc4[nH]ccc4c32)CC1 [Ex. 3]	7.94
N#CC[C@H]1CC[C@H](n2c(-c3c[nH]cn3)nc3cnc4[nH]ccc4c32)CC1 [Ex. 2]	8.82
Cn1cc(NC(=O)Cc2nc3cnc4[nH]ccc4c3n2[C@H]2CC[C@H](CC#N)CC2)cn1 [Ex. 9]	8.33

We now examine a further compound.
[ask] Item under review: N#CC[C@H]1CC[C@H](n2c(CC(=O)Nc3cc[nH]n3)nc3cnc4[nH]ccc4c32)CC1 [Ex. 11] . Reported pIC50?
[reply] 8.82

###

Please provide measured MDCK-MDR1 Papp(B-A) for the entries that follow.
System: MDCK-MDR1 cell line
Assay: MDCK-MDR1 permeability assay
Assay type: in vitro ADME
Conditions: @ 5 μM, basolateral to apical

Past entries and their recorded results:
N#CC[C@H]1CC[C@H](n2c(CC(=O)NCC3CC3)nc3cnc4[nH]ccc4c32)CC1 [Ex. 3]	16 10^−6 cm/sec
CC(C)(O)CNC(=O)Cc1nc2cnc3[nH]ccc3c2n1[C@H]1CC[C@H](CC#N)CC1 [Ex. 1]	1.1 10^−6 cm/sec
N#CC[C@H]1CC[C@H](n2c(CC(=O)NC3CCOCC3)nc3cnc4[nH]ccc4c32)CC1 [Ex. 5]	2.1 10^−6 cm/sec

We now examine a further compound.
[ask] I'd like to know its MDCK-MDR1 Papp(B-A). The compound in question is N#CC[C@H]1CC[C@H](n2c(CC(=O)NCC3CCOCC3)nc3cnc4[nH]ccc4c32)CC1 [Ex. 6]
[reply] 2.6 10^−6 cm/sec

###

Test system: P-gp (MDR1)
Assay: MDCK-MDR1 permeability assay
Format: in vitro ADME
Details: dog, MDCK-MDR1, pH 7.4, with elacridar 2 μM, @ 5 μM, apical to basolateral, with P-gp inhibitor elacridar (2 μM); read-out: MDCK-MDR1 P^eapp(A-B)
quantity-name: Papp A→B at 60 min, 5 μM

Worked set:
N#CCCNC(=O)Cc1nc2cnc3[nH]ccc3c2n1[C@H]1CC[C@H](CC#N)CC1 [Ex. 4]	0.5 ×10⁻⁶ cm/s
N#CC[C@H]1CC[C@H](n2c(CC(=O)NC3CCOCC3)nc3cnc4[nH]ccc4c32)CC1 [Ex. 5]	0.7 ×10⁻⁶ cm/s
N#CC[C@H]1CC[C@H](n2c(CC(=O)NCC3CCOCC3)nc3cnc4[nH]ccc4c32)CC1 [Ex. 6]	0.9 ×10⁻⁶ cm/s
N#CC[C@H]1CC[C@H](n2c(-c3c[nH]cn3)nc3cnc4[nH]ccc4c32)CC1 [Ex. 2]	1.6 ×10⁻⁶ cm/s
N#CC[C@H]1CC[C@H](n2c(CC(=O)Nc3cc[nH]n3)nc3cnc4[nH]ccc4c32)CC1 [Ex. 11]	0.8 ×10⁻⁶ cm/s

Consider the following items and state reported Papp A→B at 60 min, 5 μM for each.
1. N#CC[C@H]1CC[C@H](n2c(CC(=O)NCC3(O)CCC3)nc3cnc4[nH]ccc4c32)CC1 [Ex. 8]
2. N#CCC12CCC(NC(=O)Cc3nc4cnc5[nH]ccc5c4n3[C@H]3CC[C@H](CC#N)CC3)(CC1)C2 [Ex. 10]
3. N#CC[C@H]1CC[C@H](n2c(CC(=O)NCC3(O)CC3)nc3cnc4[nH]ccc4c32)CC1 [Ex. 12]

[reply]
1. 0.5 ×10⁻⁶ cm/s
2. 1.1 ×10⁻⁶ cm/s
3. 0.6 ×10⁻⁶ cm/s

###

Assay: MDCK-MDR1 permeability assay
Format: in vitro ADME
Settings: MDCK-MDR1, pH 7.4, @ 5 μM, apical to basolateral, with P-gp inhibitor elacridar (2 μM); read-out: MDCK-MDR1 P^eapp(A-B)
Give Papp A→B for every item shown.
Give bare numbers, in ×10⁻⁶ cm/s.

N#CC[C@H]1CC[C@H](n2c(CO)nc3cnc4[nH]ccc4c32)CC1	1.7

In the following, a different molecule is considered.
[ask] Data request, read-out Papp A→B, for Cc1nc2cnc3[nH]ccc3c2n1[C@H]1CC[C@H](CC#N)CC1
[reply] 22
